system: CDK8; details: concentration: 1 μM,replicates: in singlicate; n = 1;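 further: KINOMEscan kinase panel screen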
value.kind: %Inh
Don't forget the unit after the value.

Reference set, count: 8
>>> recorded_measurement("CN(C)CCOc1ccc(-c2cc(-c3c[nH]nc3-c3ccccn3)ccn2)cc1 [GW835314]")
"2%"
>>> recorded_measurement("Cc1cc2cn[nH]c2cc1-c1cccc2c(N)c(C(N)=O)nnc12")
"10%"
>>> recorded_measurement("COc1ccc(C[C@@H](CN)NC(=O)c2cc(Br)c(-c3ccnc4[nH]ccc34)s2)cc1.Cl.Cl [GSK1389063]")
"27%"
>>> recorded_measurement("CNC(=O)c1ccccc1Sc1ccc2c(/C=C/c3ccccn3)n[nH]c2c1")
"30%"
>>> recorded_measurement("CN(C)CC(O)COc1ccc(Nc2nccc(-c3cnn4nc(N5CCOCC5)ccc34)n2)cc1 (stereo not shown) [GW767488]")
"10%"
>>> recorded_measurement("CC(C)N1C(=O)Cc2cc(Nc3ncc(C(F)(F)F)c(NCc4cccc(S(C)(=O)=O)c4)n3)ccc21")
"0%"
>>> recorded_measurement("Cc1occc1-c1nc(N)c(OC[C@@H](N)Cc2c[nH]c3ccccc23)cc1-c1cc2c(C)n[nH]c2cn1 [GSK1660450]")
"0%"
>>> recorded_measurement("Cc1n[nH]c2ccc(-c3cc(OC[C@@H](N)Cc4ccccc4)cnc3-c3ccoc3)cc12.O=C(O)C(F)(F)F.O=C(O)C(F)(F)F [GSK507358]")
"26%"

Prompt: # lookup: %Inh of `CCN(CC)CCCCNc1ncc2cc(-c3c(Cl)cccc3Cl)c(NC(=O)NC(C)(C)C)nc2n1`
Response: 4%

Prompt: # lookup: %Inh of `C[C@@H](Oc1cc(-c2cnn(C3CCNCC3)c2)cnc1N)c1c(Cl)ccc(F)c1Cl`
Response: 0%

----------
test system: ERK2; construct: gene MAPK1; conditions: concentration: 1 μM,replicates: in singlicate; n = 1
value.kind: %Inh (%)
Express the result in % but write the number alone.

>>> recorded_measurement("CN(C)CCOc1ccc(-c2cc(-c3c[nH]nc3-c3ccccn3)ccn2)cc1")
12
>>> recorded_measurement("CCn1c(-c2nonc2N)nc2c(C#CC(C)(C)O)nc(OCCN)cc21.Cl.Cl")
0
>>> recorded_measurement("CNC(=O)c1ccccc1Sc1ccc2c(/C=C/c3ccccn3)n[nH]c2c1")
0

Prompt: # lookup: %Inh of `Cc1occc1-c1nc(N)c(OC[C@@H](N)Cc2c[nH]c3ccccc23)cc1-c1cc2c(C)n[nH]c2cn1`
Response: 0

Prompt: # lookup: %Inh of `C=CC(=O)Nc1cc2c(Nc3ccc(F)c(Cl)c3)ncnc2cc1OCCCN1CCOCC1`
Response: 0

Prompt: # lookup: %Inh of `O=C(NCCCN1CCOC1=O)c1cnc(NCc2cc(Cl)ccc2Cl)nc1NC1CCCC1`
Response: 19

Prompt: # lookup: %Inh of `Cl.Oc1cc(-c2nc(-c3ccccc3)[nH]c2-c2ccncc2)ccc1Cl`
Response: 25

Prompt: # lookup: %Inh of `CCN(CC)CCOc1ccc(Nc2ncc3cc(-c4c(Cl)cccc4Cl)c(=O)n(C)c3n2)cc1`
Response: 3

Prompt: # lookup: %Inh of `CCN(CC)CCCCNc1ncc2cc(-c3c(Cl)cccc3Cl)c(NC(=O)NC(C)(C)C)nc2n1`
Response: 23

Prompt: # lookup: %Inh of `Nc1nc(Nc2ccccc2)cc(-c2ccc3c(N)n[nH]c3c2)n1`
Response: 0

Prompt: # lookup: %Inh of Cl.Cl.Nc1nc(-c2ccc3c(N)n[nH]c3c2)cc(N2CCCC(NC(=O)c3ccccc3)C2)n1 (centres unmarked)
Response: 0

Prompt: # lookup: %Inh of `O=C(NCCNc1ccnc(NCc2ccc(F)cc2)n1)c1cc2ccccc2s1`
Response: 0

Prompt: # lookup: %Inh of `C[C@@H](Oc1cc(-c2cnn(C3CCNCC3)c2)cnc1N)c1c(Cl)ccc(F)c1Cl`
Response: 14

Prompt: # lookup: %Inh of `Cc1cc2cn[nH]c2cc1-c1cccc2c(N)c(C(N)=O)nnc12`
Response: 79

Prompt: # lookup: %Inh of `NC(=O)c1cc(-c2ccccc2)cc2c(C3CCNCC3)c[nH]c12`
Response: 9

Prompt: # lookup: %Inh of `Cl.Cl.NC[C@H](Cc1ccc(C(F)(F)F)cc1)NC(=O)c1cc(Br)c(-c2ccnc3[nH]ccc23)s1`
Response: 20

Prompt: # lookup: %Inh of `COc1ccc(C[C@@H](CN)NC(=O)c2cc(Br)c(-c3ccnc4[nH]ccc34)s2)cc1.Cl.Cl`
Response: 19
